# Tested on: LEGO organoid PTCC (PTEN-/-; TP53-/-; CDKN2A-/-; CDKN2B-/-)
# measurement-notes: bioluminescence (viable cell) signal fold change after vs before treatment, normalised to DMSO (ratio); higher = more tumour cell growth / less inhibition
# assay-setup: 10 µM; treatment time 6 days
Returns MET if the recorded bioluminescence is greater than or equal to 0.9, and NOT MET otherwise.

>>> category_label("CC1COc2c(N3CCN(C)CC3)c(F)cc3c(=O)c(C(=O)O)cn1c23 (configuration not stated) [Ofloxacin]")
"MET"
>>> category_label("C[C@]12CCC3=C4CCC(=O)C=C4CC[C@H]3[C@@H]1CC[C@@]2(O)CC#N [Dienogest]")
"MET"
>>> category_label("CO[C@H]1/C=C/O[C@@]2(C)Oc3c(C)c(O)c4c(O)c(c(/C=N/N5CCN(C6CCCC6)CC5)c(O)c4c3C2=O)NC(=O)/C(C)=C\\C=C\\[C@H](C)[C@H](O)[C@@H](C)[C@@H](O)[C@@H](C)[C@H](OC(C)=O)[C@@H]1C [Rifapentine]")
"NOT MET"
>>> category_label("CCC(CC)O[C@@H]1C=C(C(=O)O)C[C@H](N)[C@H]1NC(C)=O [Oseltamivir acid]")
"NOT MET"
>>> category_label("NC(=O)c1ncn([C@@H]2O[C@H](CO)[C@@H](O)[C@H]2O)n1 [Ribavirin]")
"MET"
>>> category_label("COc1c(N2CCNC(C)C2)c(F)cc2c(=O)c(C(=O)O)cn(C3CC3)c12 (configuration not stated) [Gatifloxacin]")
"MET"

* * *

# Test system: LEGO organoid PTCC (PTEN-/-; TP53-/-; CDKN2A-/-; CDKN2B-/-)
# measurement-notes: bioluminescence (viable cell) signal fold change after vs before treatment, normalised to DMSO (ratio); higher = more tumour cell growth / less inhibition
# assay-setup: 10 µM; treatment time 6 days
Recorded bioluminescence for the following compounds
measurement-kind: bioluminescence

>>> endpoint_value("COc1ccc(CNc2nc(N3CCC[C@H]3CO)ncc2C(=O)NCc2ncccn2)cc1Cl")
0.873
>>> endpoint_value("COc1ccc(Cl)cc1C(=O)NCCc1ccc(S(=O)(=O)NC(=O)NC2CCCCC2)cc1 [Glyburide]")
1.51
>>> endpoint_value("CC(=O)[C@H]1CC[C@H]2[C@@H]3CCC4=CC(=O)CC[C@]4(C)[C@H]3CC[C@]12C")
0.682
>>> endpoint_value("CC(=O)OCC[N+](C)(C)C.[Cl-] [Acetylcholine chloride]")
1.09

* * *

# Test system: LEGO organoid PTCC (PTEN-/-; TP53-/-; CDKN2A-/-; CDKN2B-/-)
# measurement-notes: bioluminescence (viable cell) signal fold change after vs before treatment, normalised to DMSO (ratio); higher = more tumour cell growth / less inhibition
# assay-setup: 10 µM; treatment time 6 days
measurement-kind: bioluminescence

>>> endpoint_value("CO[C@H]1C(=O)[C@]2(C)[C@@H](OC)C[C@H]3OC[C@@]3(OC(C)=O)[C@H]2[C@H](OC(=O)c2ccccc2)[C@]2(O)C[C@H](OC(=O)[C@H](O)[C@@H](NC(=O)OC(C)(C)C)c3ccccc3)C(C)=C1C2(C)C")
7.3
>>> endpoint_value("COc1cccc2c1C(=O)c1c(O)c3c(c(O)c1C2=O)C[C@@](O)(C(=O)CO)C[C@@H]3O[C@H]1C[C@H](N)[C@@H](O)[C@H](C)O1.Cl [Epirubicin hydrochloride]")
0
>>> endpoint_value("COc1cc(Nc2c(C#N)cnc3cc(OCCCN4CCN(C)CC4)c(OC)cc23)c(Cl)cc1Cl")
0.731
>>> endpoint_value("CCC1(C)CC(=O)NC1=O (configuration not stated) [Ethosuximide]")
0.668
>>> endpoint_value("N[C@@H]1CONC1=O")
1.11
>>> endpoint_value("Cl.Clc1cccc(Cl)c1NC1=NCCN1 [Clonidine hydrochloride]")
1.29
>>> endpoint_value("O=C([O-])Cc1ccccc1Nc1c(Cl)cccc1Cl.[Na+] [Diclofenac sodium]")
1.05
>>> endpoint_value("Cl.CN(C)CC\\C=C1\\c2ccccc2CCc2ccccc12 [Amitriptyline hydrochloride]")
0.794
>>> endpoint_value("C[C@@H]1O[C@@H]1P(=O)(O)O.NC(CO)(CO)CO")
1.69
>>> endpoint_value("C[C@H]1COc2c(N3CCN(C)CC3)c(F)cc3c(=O)c(C(=O)O)cn1c23")
0.587
>>> endpoint_value("CCc1cc2c(cc1N1CCC(N3CCOCC3)CC1)C(C)(C)c1[nH]c3cc(C#N)ccc3c1C2=O")
2.57
>>> endpoint_value("Cc1ncc([N+](=O)[O-])n1CCO")
0.966
>>> endpoint_value("CSc1ccc2c(c1)N(CCC1CCCCN1C)c1ccccc1S2.Cl (configuration not stated) [Thioridazine hydrochloride]")
0.704
>>> endpoint_value("O=NN(CCCl)C(=O)NC1CCCCC1")
1.17
>>> endpoint_value("Clc1ccc2c(c1)C(N1CCNCC1)=Nc1ccccc1O2")
1.25
>>> endpoint_value("CNCCCN1c2ccccc2CCc2ccccc21.Cl [Desipramine hydrochloride]")
0.744
>>> endpoint_value("CN=C(NC#N)NCCSCc1nc[nH]c1C")
2.25

* * *

# System: LEGO organoid PTCC (PTEN-/-; TP53-/-; CDKN2A-/-; CDKN2B-/-)
# measurement-notes: bioluminescence (viable cell) signal fold change after vs before treatment, normalised to DMSO (ratio); higher = more tumour cell growth / less inhibition
# assay-setup: 10 µM; treatment time 6 days
measurement-kind: bioluminescence

>>> endpoint_value("CCN(CC)CC(=O)Nc1c(C)cccc1C.Cl [Lidocaine hydrochloride]")
1.11
>>> endpoint_value("CCCOc1ccc(S(=O)(=O)NCCC2CCCN2C)cc1-c1nc2c(CCC)nn(C)c2c(=O)[nH]1 (stereo not drawn)")
1.32
>>> endpoint_value("Nc1nc2c(ncn2COC(CO)CO)c(=O)[nH]1")
1.62
>>> endpoint_value("CCOC(=O)c1ccc(C#Cc2ccc3c(c2)C(C)(C)CCS3)nc1")
1.42
>>> endpoint_value("CS(=O)(=O)O.Cc1ccc(NC(=O)c2ccc(CN3CCN(C)CC3)cc2)cc1Nc1nccc(-c2cccnc2)n1 [Imatinib Mesylate]")
1.35
>>> endpoint_value("CC(CN(C)C)CN1c2ccccc2CCc2ccccc21.O=C(O)/C=C\\C(=O)O (stereo not drawn) [Trimipramine maleate]")
0.61
>>> endpoint_value("Cc1cc2c(s1)Nc1ccccc1N=C2N1CCN(C)CC1")
0.712
>>> endpoint_value("CCN(CC)CC#CCOC(=O)C(O)(c1ccccc1)C1CCCCC1 (stereo not drawn)")
0.776

* * *

# Test system: LEGO organoid PTN (PTEN-/-; TP53-/-; NF1-/-)
# measurement-notes: bioluminescence (viable cell) signal fold change after vs before treatment, normalised to DMSO (ratio); higher = more tumour cell growth / less inhibition
# assay-setup: 10 µM; treatment time 6 days
Entries and their measured bioluminescence follow.
measurement-kind: bioluminescence

>>> endpoint_value("CN1CC(=O)N2[C@H](c3ccc4c(c3)OCO4)c3[nH]c4ccccc4c3C[C@@H]2C1=O [Tadalafil]")
0.562
>>> endpoint_value("CCC(C)(C)C(=O)O[C@H]1C[C@@H](C)C=C2C=C[C@H](C)[C@H](CC[C@@H]3C[C@@H](O)CC(=O)O3)[C@H]21 [Simvastatin]")
0.364
>>> endpoint_value("O=C(O)c1cccnc1 [Niacin]")
1.59
>>> endpoint_value("CN1CCN(C2=Nc3cc(Cl)ccc3Nc3ccccc32)CC1 [Clozapine]")
0.617
>>> endpoint_value("O=C(O)Cc1ccccc1Nc1c(Cl)cccc1Cl [Diclofenac]")
1.13
>>> endpoint_value("O=C1CCC(N2C(=O)c3ccccc3C2=O)C(=O)N1 (centres undefined) [Thalidomide]")
1.38
>>> endpoint_value("CNCCCN1c2ccccc2CCc2ccccc21.Cl [Desipramine hydrochloride]")
1.22
>>> endpoint_value("CCCC(CCC)C(=O)O.CCCC(CCC)C(=O)[O-].[Na+] [Divalproex Sodium]")
0.401
>>> endpoint_value("CN(C)CCCN1c2ccccc2CCc2ccccc21.Cl [Imipramine hydrochloride]")
0.961

* * *

# Test system: LEGO organoid PTCC (PTEN-/-; TP53-/-; CDKN2A-/-; CDKN2B-/-)
# measurement-notes: bioluminescence (viable cell) signal fold change after vs before treatment, normalised to DMSO (ratio); higher = more tumour cell growth / less inhibition
# assay-setup: 10 µM; treatment time 6 days
Threshold rule: bioluminescence greater than or equal to 1 is 1; below that, -1.

>>> category_label("CCCCOc1ccc(C(=O)CCN2CCCCC2)cc1.Cl [Dyclonine hydrochloride]")
1
>>> category_label("O=C1CCc2ccc(OCCCCN3CCN(c4cccc(Cl)c4Cl)CC3)cc2N1")
-1
>>> category_label("S=c1nc[nH]c2nc[nH]c12")
1
>>> category_label("Cl.N=C1CCCN1Cc1[nH]c(=O)[nH]c(=O)c1Cl [Tipiracil hydrochloride]")
1
>>> category_label("CCc1c2c(nc3ccc(OC(=O)N4CCC(N5CCCCC5)CC4)cc13)-c1cc3c(c(=O)n1C2)COC(=O)[C@]3(O)CC.Cl.O.O.O [Irinotecan hydrochloride trihydrate]")
-1
>>> category_label("C/C(O)=C(\\C#N)C(=O)Nc1ccc(C(F)(F)F)cc1 [Teriflunomide]")
-1
>>> category_label("Cl.NC12CC3CC(CC(C3)C1)C2 [Amantadine hydrochloride]")
1
>>> category_label("CO[C@H]1/C=C/O[C@@]2(C)Oc3c(C)c(O)c4c(O)c(c(/C=N/N5CCN(C)CC5)c(O)c4c3C2=O)NC(=O)/C(C)=C\\C=C\\[C@H](C)[C@H](O)[C@@H](C)[C@@H](O)[C@@H](C)[C@H](OC(C)=O)[C@@H]1C")
-1
>>> category_label("CCCCCOC(=O)Nc1nc(=O)n([C@@H]2O[C@H](C)[C@@H](O)[C@H]2O)cc1F")
1
>>> category_label("CCC1=C[C@@H]2CN(C1)Cc1c([nH]c3ccccc13)[C@@](C(=O)OC)(c1cc3c(cc1OC)N(C)[C@H]1[C@@](O)(C(=O)OC)[C@H](OC(C)=O)[C@]4(CC)C=CCN5CC[C@]31[C@@H]54)C2.O=C(O)[C@H](O)[C@@H](O)C(=O)O.O=C(O)[C@H](O)[C@@H](O)C(=O)O [Vinorelbine Tartrate]")
1
>>> category_label("CN(C)C(=N)NC(=N)N.Cl [Metformin hydrochloride]")
1
>>> category_label("Cl.OC[C@H]1NC[C@H](O)[C@@H](O)[C@H]1O [Migalastat hydrochloride]")
-1
>>> category_label("CN(C)CCOC(C)(c1ccccc1)c1ccccn1.O=C(O)CCC(=O)O (centres undefined) [Doxylamine succinate]")
1
>>> category_label("CN(C)CCCN1c2ccccc2CCc2ccc(Cl)cc21.Cl [Clomipramine hydrochloride]")
-1
